Cited source: ChEMBL document CHEMBL4325895

assay_comment: Volume of distribution at steady state in CD-1 mouse at 1 mg/kg, iv by mass spectrometric analysis
Type: ADME, organism-based
settings: in vivo
quantity_measured: Vd (L/kg)

1: C[C@H](F)[C@H]1COC(=O)N1c1nc(NC2(c3cn(-c4ccc(F)c(Cl)c4)cn3)CC2)ncc1F
2: C[C@H](F)[C@H]1COC(=O)N1c1ccnc(NC2(c3cn(-c4ccc(F)c(Cl)c4)cn3)CC2)n1
Between 1 and 2 , which one shows the smaller Vd number? Respond using the label that marks the chosen record.
1

* * *

target_system: Isocitrate dehydrogenase [NADP] cytoplasmic (Homo sapiens, UniProt O75874, R132C)
Sequence (O75874 2-414 R132C limits assumed): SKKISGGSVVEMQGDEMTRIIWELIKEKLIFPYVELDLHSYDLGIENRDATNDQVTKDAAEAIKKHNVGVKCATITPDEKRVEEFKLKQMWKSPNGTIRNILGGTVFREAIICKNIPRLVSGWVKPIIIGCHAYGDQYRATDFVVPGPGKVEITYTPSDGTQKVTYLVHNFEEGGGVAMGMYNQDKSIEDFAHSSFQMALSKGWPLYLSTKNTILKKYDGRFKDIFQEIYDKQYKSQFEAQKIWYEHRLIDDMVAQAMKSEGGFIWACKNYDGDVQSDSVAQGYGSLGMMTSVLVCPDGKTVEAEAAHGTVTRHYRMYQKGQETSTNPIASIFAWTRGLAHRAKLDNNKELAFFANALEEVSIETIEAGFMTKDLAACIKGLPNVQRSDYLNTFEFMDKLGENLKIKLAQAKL
assay_comment: Inhibition of IDH1 R132C mutant in human HT1080 cells assessed as inhibition of 2HG production after 48 hrs by LC-MS/MS analysis
pIC50: −log10 of the molar value.
quantity_measured: pIC50

INSERT INTO measurements (smiles_input, target_system, value_reported) VALUES
  ('C[C@H](F)[C@H]1COC(=O)N1c1ccnc(NC2(c3ncn(-c4cccc(C(F)(F)F)c4)c3Cl)CC2)n1', 'Isocitrate dehydrogenase [NADP] cytoplasmic (Homo sapiens, UniProt O75874, R132C)', 7.59),
  ('C[C@H](F)[C@H]1COC(=O)N1c1nc(NC2(c3cn(-c4ccc(F)c(Cl)c4)cn3)CC2)ncc1F', 'Isocitrate dehydrogenase [NADP] cytoplasmic (Homo sapiens, UniProt O75874, R132C)', 7.74),
  ('C[C@H](F)[C@H]1COC(=O)N1c1ccnc(NC2(c3cn(-c4cc(Cl)cc(Cl)c4)cn3)CC2)n1', 'Isocitrate dehydrogenase [NADP] cytoplasmic (Homo sapiens, UniProt O75874, R132C)', 7.68);

1: Cc1c(C2(Nc3nccc(N4C(=O)OC[C@@H]4[C@H](C)F)n3)CC2)ncn1-c1cccc(C(F)(F)F)c1
2: C[C@H](F)[C@H]1COC(=O)N1c1ccnc(NC2(c3cn(-c4cc(F)cc(Cl)c4)cn3)CC2)n1
Between 1 and 2 , which one shows the smaller pIC50 number? Respond using the label that marks the chosen record.
1
(1: 7.42, 2: 7.74)

a: C[C@H](F)[C@H]1COC(=O)N1c1ccnc(NC2(c3ncn(-c4cccc(C(F)(F)F)c4)c3C#N)CC2)n1
b: C[C@H](F)[C@H]1COC(=O)N1c1cc(Cl)nc(NC2(c3cn(-c4ccc(F)c(Cl)c4)cn3)CC2)n1
// which entry has the larger pIC50 value, a or b ? Respond using the label that marks the chosen record.
b
(b: 7.60, a: 7.26)

I: C[C@H](F)[C@H]1COC(=O)N1c1ccnc(NC2(c3cn(-c4ccc(Cl)cc4)cn3)CC2)n1
II: C[C@H](F)[C@H]1COC(=O)N1c1ccnc(NC2(c3cn(-c4cccc(Cl)c4)cn3)CC2)n1
// which entry has the larger pIC50 value, I or II ? Respond using the label that marks the chosen record.
II

* * *

assay_comment: Intrinsic clearance in human liver microsomes assessed per gram of protein at 0.1 uM after 60 mins in presence of NADPH by LC-MS/MS analysis
Format: ADME, Microsome
settings: 1 h
quantity_measured: CLint (mL/min/g)

I: C[C@H](F)[C@H]1COC(=O)N1c1ccnc(NC2(c3cn(-c4ccc(F)c(Cl)c4)cn3)CCC2)n1
II: C[C@H](F)[C@H]1COC(=O)N1c1nc(NC2(c3cn(-c4ccc(F)c(Cl)c4)cn3)CC2)ncc1F
// which entry has the larger CLint value, I or II ? Respond using the label that marks the chosen record.
I
(I: 195 mL/min/g, II: 55 mL/min/g)
